Provide the recorded normalized growth for the entries that follow.
assay_summary: chemical genetic growth profiling, strain panel (AID 1159580);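 further: tested at 20 µM; growth read once vehicle control cultures reached saturation at 30 °C; 1 = growth at the plate median or of vehicle wells; lower values mean less growth of the strain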
run_parameters: S. cerevisiae deletion strains, growth OD, locus YHR079C, strain IRE1 (second series), active compounds read low
In all, about 5,500 compounds went through this assay and about 2,000 (36%) were called active. Inconclusive results (about 18%) are left out. This is one part of the list.
Give bare numbers.

Record excerpt, results attached:
Requested read-out: normalized growth. Entry: O=c1[nH]cc(F)c(=O)[nH]1
0.665

Here is the next compound: CNC(=O)O/N=C\C(C)(C)SC
0.988

Here is the next compound: C[C@@H]1OC(O[C@H]2[C@H](O)[C@@H](O)[C@H](OC[C@H]3O[C@@H](OC(=O)[C@]45CCC(C)(C)CC4C4=CCC6[C@@]7(C)CC[C@H](OC8OC[C@H](O)[C@H](O)[C@H]8OC8O[C@@H](C)[C@H](O)[C@@H](O)[C@H]8O)[C@@](C)(CO)C7CC[C@@]6(C)[C@]4(C)CC5)[C@H](O)[C@@H](O)[C@@H]3O)O[C@@H]2CO)[C@H](O)[C@H](O)[C@H]1O (stereo partly drawn)
0.993

Here is the next compound: O=c1cc(CO)occ1O
1.03

Here is the next compound: Cc1cc(C(C)(C)C)c(O)c(C(C)(C)C)c1
0.963

Here is the next compound: C[C@@H]1OC(O[C@H]2C(O[C@H]3CC[C@@]4(C)C(CC[C@]5(C)C4CC=C4C6CC(C)(C)CC[C@]6(C(=O)O)CC[C@]45C)[C@]3(C)CO)OC[C@H](O)[C@@H]2O)[C@H](O)[C@H](O)[C@H]1O (stereo partly drawn)
0.0576

Here is the next compound: OC(CCN1CCCCC1)(c1ccccc1)C1CCCCC1 (stereo not drawn)
0.992

Here is the next compound: NNc1nncc2ccccc12
0.993

Here is the next compound: N#CC(O[C@@H]1O[C@H](CO[C@@H]2O[C@H](CO)[C@@H](O)[C@H](O)[C@H]2O)[C@@H](O)[C@H](O)[C@H]1O)c1ccccc1 (stereo partly drawn)
0.99

Here is the next compound: CC1(C)CC[C@]2(C(=O)O)CC[C@]3(C)C(=CCC4[C@@]5(C)CC[C@H](O)[C@@](C)(CO)C5CC[C@]43C)C2C1 (stereo partly drawn)
0.999

Could you report normalized growth for every entry in the following list?
1. CCC(C)C(=O)O[C@H]1[C@H](O)C2C(CN3CC(C)CCC3[C@@]2(C)O)C2C[C@]34O[C@]5(O)C(OC(=O)C(C)(O)CC)CC[C@@]3(C)C5C(OC(C)=O)[C@@H](OC(C)=O)C4[C@@]21O (stereo partly drawn)
2. CCCCCCCCCCCC[C@H](C(=O)O)[C@@H](C)C(=O)O
3. Fc1ccc(C(c2ccccc2)(c2ccccc2F)n2ccnc2)cc1 (stereo not drawn)
4. Cc1cc(O)cc(C)c1Cl
5. CC(C)=CCCC1(C)C=Cc2c(O)c3c(c(CC=C(C)C)c2O1)OC12C(=CC4CC1C(C)(C)OC2(C/C=C(\C)C(N)=O)C4=O)C3=O (stereo not drawn)
6. COC(=O)/C(C)=C\CC12OC(C)(C)C3CC(C=C4C(=O)c5c(O)c6c(c(CCC(C)(C)Cl)c5OC431)OC1(C)CCC(=C(C)C)C6C1)C2=O (stereo not drawn)
7. COC1=C[C@@H]2[C@@H]3Cc4ccc(OC)c(O)c4[C@]2(CCN3C)CC1=O

1. 0.993
2. 1
3. 0.0811
4. 0.996
5. 0.99
6. 1
7. 0.987

Could you report normalized growth for every entry in the following list?
1. CC(C)(C#N)O[C@@H]1O[C@H](CO)[C@@H](O)[C@H](O)[C@H]1O
2. Nc1ccc(S(=O)(=O)Nc2ccnn2-c2ccccc2)cc1
3. Nc1ccccc1C(=O)CC(N)C(=O)O (stereo not drawn)
4. O=C1C(O)=C(O)C(=O)C(O)=C1O
5. C#C[C@]1(O)CCC2C3CCC4=CC(=O)CC[C@@H]4C3CC[C@@]21CC (stereo partly drawn)

0.994
0.994
0.992
1
0.979

Could you report normalized growth for every entry in the following list?
1. Nc1c2c(nc3ccccc13)CCCC2
2. CC(C)=CCCC1(C)C=Cc2c(O)c3c(c(CC=C(C)C)c2O1)OC12C(=CCCC1C(C)(C)O[C@@]2(C/C=C(\C)C(=O)O)C(=O)O)C3=O (stereo partly drawn)

1. 1.02
2. 0.979

====

assay_summary: chemical genetic growth profiling, strain panel (AID 1159580);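 further: tested at 20 µM; growth read once vehicle control cultures reached saturation at 30 °C; 1 = growth at the plate median or of vehicle wells; lower values mean less growth of the strain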
run_parameters: S. cerevisiae deletion strains, growth OD, locus YEL061C, strain CIN8, active compounds read low
Among all 5,500 compounds or so, about 2,000 (36%) were called active. Roughly 18% stayed inconclusive and do not appear here. The list shows a part of the results.
Provide the recorded normalized growth for the entries that follow.
Answers are plain numbers.

Record excerpt, results attached:
Requested read-out: normalized growth. Entry: CC(C)(C#N)O[C@@H]1O[C@H](CO)[C@@H](O)[C@H](O)[C@H]1O
1

Here is the next molecule: CC(C)(Sc1cc(C(C)(C)C)c(O)c(C(C)(C)C)c1)Sc1cc(C(C)(C)C)c(O)c(C(C)(C)C)c1
1.01

Here is the next molecule: O=c1cc(CO)occ1O
1

Here is the next molecule: Cc1noc(N)c1C(N)=S
1

Here is the next molecule: O=C1CC(CSc2ccc(Cl)cc2)=NN1
0.832

Here is the next molecule: COc1ccc(NC(=O)C(C)c2ccc(CC(C)C)cc2)cc1 (stereo not given)
0.943

Could you report normalized growth for every entry in the following list?
1. CC(=O)Nc1ccc(OCC(O)CNC(C)C)cc1 (stereo not given)
2. Cc1cc(C(C)(C)C)c(O)c(C(C)(C)C)c1
3. CCN(CC)c1ccc(NC(=O)c2c(F)cccc2F)c(N(CC)CC)n1
4. CCCCCc1ccc(C(=O)O/N=C\c2c(Cl)cccc2Cl)cc1
5. NNC(=O)c1ccncc1

1. 1.01
2. 0.983
3. 0.964
4. 0.902
5. 1.01

Could you report normalized growth for every entry in the following list?
1. CC(C)(Oc1ccc(CCNC(=O)c2ccc(Cl)cc2)cc1)C(=O)O
2. Cc1cn([C@H]2C[C@H](N=[N+]=[N-])[C@@H](CO)O2)c(=O)[nH]c1=O
3. Nc1c2c(nc3ccccc13)CCCC2O (stereo not given)
4. Clc1ccccc1C(c1ccccc1)(c1ccccc1)n1ccnc1
5. COc1ccc2c(c1)c(CC(=O)OCC(=O)O)c(C)n2C(=O)c1ccc(Cl)cc1
6. COc1ccc2c(c1)c(CC(=O)O)c(C)n2C(=O)c1ccc(Cl)cc1
7. O=C(O)/C=C1\CCCc2ccccc2C1O (stereo not given)

1: 1.01; 2: 1; 3: 1.03; 4: 0.0506; 5: 1.01; 6: 1; 7: 0.995

Could you report normalized growth for every entry in the following list?
1. COc1cc(OC)nc(N)n1
2. O=C(Nc1cc2cc([N+](=O)[O-])ccc2oc1=O)c1c(F)cccc1F
3. NNc1nncc2ccccc12
4. O=C(O)c1ccc(N=Cc2ccc3c(c2)OCO3)cc1

[1, 1.01, 1, 1.01]

====

assay_summary: chemical genetic growth profiling, strain panel (AID 1159580);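 further: tested at 20 µM; growth read once vehicle control cultures reached saturation at 30 °C; 1 = growth at the plate median or of vehicle wells; lower values mean less growth of the strain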
run_parameters: S. cerevisiae deletion strains, growth OD, locus YNL071W, strain lat1, active compounds read low
Hit rate of the full screen: of about 5,500 compounds, about 2,000 (36%) were called active. Inconclusive results (about 18%) are left out. The list shows a part of the results.
measure: normalized growth
One number for each entry.

Record excerpt, results attached:
Requested read-out: normalized growth. Entry: CC1OC(=O)C(C(C)C)NC(=O)C(C(C)C)OC(=O)C(C(C)C)NC(=O)C(C)OC(=O)C(C(C)C)NC(=O)C(C(C)C)OC(=O)C(C(C)C)NC(=O)C(C)OC(=O)C(C(C)C)NC(=O)C(C(C)C)OC(=O)C(C(C)C)NC1=O (stereo not drawn)
0.0873

Here is the next compound: NC(N)=N/N=C/c1c(Cl)cccc1Cl
0.982

New cases:
Requested read-out: normalized growth. Entry: CC(C)CCCC1(C)C=Cc2c(O)c3c(c(CCC(C)C)c2O1)OC12C(CC4CC1C(C)(C)OC2(CCC(C)C(=O)O)C4O)C3=O (stereo not drawn)
0.969

====

assay_summary: chemical genetic growth profiling, strain panel (AID 1159580);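 further: tested at 20 µM; growth read once vehicle control cultures reached saturation at 30 °C; 1 = growth at the plate median or of vehicle wells; lower values mean less growth of the strain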
run_parameters: S. cerevisiae deletion strains, growth OD, locus YDL074C, strain BRE1, active compounds read low
Among all 5,500 compounds or so, about 2,000 (36%) were called active. Inconclusive results (about 18%) are left out. The list shows a part of the results.
Provide the recorded normalized growth for the entries that follow.
Numbers only.

Requested read-out: normalized growth. Entry: CCC(C)C(NC)C(=O)O (stereo not given)
1.01

Here is the next compound: NCCC(=O)N[C@@H](Cc1cnc[nH]1)C(=O)O
1.01

Here is the next compound: COc1ccc2c(c1)c(CC(=O)OCC(=O)O)c(C)n2C(=O)c1ccc(Cl)cc1
1.01

Here is the next compound: COC(=O)C[C@H]1C(C)(C)C2(O)OC34CC2C(=O)[C@]1(C)C3CC[C@]1(C)C4=CC(=O)O[C@H]1c1ccoc1 (stereo not given in full)
1.01

New cases:
Requested read-out: normalized growth. Entry: COc1ccc2c(c1)c(CC(=O)O)c(C)n2C(=O)c1ccc(Cl)cc1
1.02
